# procedure.details: Drug transport assay with MDCK monolayers (apparent permeability, Papp)
# Format: in vitro ADME
# run.parameters: dog, MDCK, apical to basolateral, 37° C.
Counter-ions that a name gives are not always drawn.
met means recorded Papp A→B at 1 h, 100 µM is 10 ×10⁻⁶ cm/s or above; not met means it is below 10 ×10⁻⁶ cm/s.

[Q] Quick check: does O=C(OCOc1ccc2c(c1)[C@]13CCCC[C@@H]1[C@H](C2)NCC3)OC1CCC1 [Example 37, TFA] have Papp A→B at 1 h, 100 µM greater than or equal to 10 ×10⁻⁶ cm/s?
[A] met

[Q] Quick check, Papp A→B at 1 h, 100 µM >= 10 ×10⁻⁶ cm/s? CCCC(C)OC(=O)OCOc1ccc2c(c1)[C@]13CCCC[C@@H]1[C@H](C2)NCC3 (stereo partly shown) [Example 41, TFA]
[A] met

[Q] Check the entry CCC(C(=O)OCOc1ccc2c(c1)[C@]13CCCC[C@@H]1[C@H](C2)NCC3)c1ccccc1 (stereo partly shown) [Example 72, TFA] : does Papp A→B at 1 h, 100 µM equal or exceed 10 ×10⁻⁶ cm/s?
[A] met

[Q] Kindly determine if Papp A→B at 1 h, 100 µM recorded for Oc1ccc2c(c1)[C@@]13CCCC[C@H]1[C@@H](C2)NCC3 [HM, (+)-3-hydroxymorphinan] is above or exactly 10 ×10⁻⁶ cm/s.
[A] not met

[Q] Please tell me: is the compound CC(Cc1ccccc1)OC(=O)OCOc1ccc2c(c1)[C@]13CCCC[C@@H]1[C@H](C2)NCC3 (stereo partly shown) [Example 31, TFA] at or over 10 ×10⁻⁶ cm/s in terms of Papp A→B at 1 h, 100 µM?
[A] met

[Q] Check this compound for Papp A→B at 1 h, 100 µM at or above 10 ×10⁻⁶ cm/s: CCC(C)OC(=O)OCOc1ccc2c(c1)[C@]13CCCC[C@@H]1[C@H](C2)NCC3 (single isomer, unassigned; (+)) [Example 25, TFA]
[A] met

[Q] Identify whether the reported Papp A→B at 1 h, 100 µM of the following compound is 10 ×10⁻⁶ cm/s or greater: O=C(OCOc1ccc2c(c1)[C@]13CCCC[C@@H]1[C@H](C2)NCC3)C1CCCCC1 [Example 56, TFA]
[A] not met

---

# procedure.details: Drug transport assay with MDCK monolayers (apparent permeability, Papp)
# Type: in vitro ADME
# run.parameters: dog, MDCK, apical to basolateral, 37° C.
Where a name gives a salt, the structure may show the parent alone.
I'd appreciate it if you could supply Papp A→B at 1 h, 100 µM values for the items below.
Enter the number, and then the unit.

[Q] Recall and state the measured Papp A→B at 1 h, 100 µM for O=C(OCOc1ccc2c(c1)[C@]13CCCC[C@@H]1[C@H](C2)NCC3)OCC1CCCCC1 .
[A] 48.7 ×10⁻⁶ cm/s

[Q] Write down Papp A→B at 1 h, 100 µM measured for item O=C(OCOc1ccc2c(c1)[C@]13CCCC[C@@H]1[C@H](C2)NCC3)C1CC1 [Example 68, TFA]
[A] 10.1 ×10⁻⁶ cm/s

[Q] Note down Papp A→B at 1 h, 100 µM recorded for O=C(OCOc1ccc2c(c1)[C@]13CCCC[C@@H]1[C@H](C2)NCC3)OC1CCCCCC1 [Example 27, TFA]
[A] 23.4 ×10⁻⁶ cm/s

[Q] Quick one: give measured Papp A→B at 1 h, 100 µM for O=C(OCOc1ccc2c(c1)[C@]13CCCC[C@@H]1[C@H](C2)NCC3)OCC1CCC1 [Example 17, TFA]
[A] 22.7 ×10⁻⁶ cm/s

[Q] Quickly give me recorded Papp A→B at 1 h, 100 µM for O=C(OCOc1ccc2c(c1)[C@]13CCCC[C@@H]1[C@H](C2)NCC3)OCC1CCCC1 [Example 15, TFA]
[A] 33.7 ×10⁻⁶ cm/s

[Q] Check the records and state Papp A→B at 1 h, 100 µM for CCC(C)C(=O)OCOc1ccc2c(c1)[C@]13CCCC[C@@H]1[C@H](C2)NCC3 (stereo partly drawn) [Example 66, TFA]
[A] 16.2 ×10⁻⁶ cm/s

[Q] Identify the reported Papp A→B at 1 h, 100 µM for the following entry. CCCOC(=O)OCOc1ccc2c(c1)[C@]13CCCC[C@@H]1[C@H](C2)NCC3
[A] 21.9 ×10⁻⁶ cm/s

[Q] Please indicate Papp A→B at 1 h, 100 µM recorded for O=C(OCOc1ccc2c(c1)[C@]13CCCC[C@@H]1[C@H](C2)NCC3)C1CCCC1 [Example 58, TFA]
[A] 6.05 ×10⁻⁶ cm/s

[Q] Annotate the compound CCC(CC)C(=O)OCOc1ccc2c(c1)[C@]13CCCC[C@@H]1[C@H](C2)NCC3 [Example 54, TFA] with its measured Papp A→B at 1 h, 100 µM.
[A] 28.9 ×10⁻⁶ cm/s

[Q] Read the entry O=C(OCOc1ccc2c(c1)[C@]13CCCC[C@@H]1[C@H](C2)NCC3)OC1CCCC1 and write its reported Papp A→B at 1 h, 100 µM.
[A] 20.6 ×10⁻⁶ cm/s

[Q] For the compound CC(C)CC(=O)OCOc1ccc2c(c1)[C@]13CCCC[C@@H]1[C@H](C2)NCC3 [Example 70, TFA] , give its measured Papp A→B at 1 h, 100 µM value.
[A] 16.6 ×10⁻⁶ cm/s

[Q] Identify Papp A→B at 1 h, 100 µM associated with the compound CC(C)OC(=O)OCOc1ccc2c(c1)[C@]13CCCC[C@@H]1[C@H](C2)NCC3
[A] 26.2 ×10⁻⁶ cm/s

[Q] Provide measured Papp A→B at 1 h, 100 µM value, entry: O=C(OCOc1ccc2c(c1)[C@]13CCCC[C@@H]1[C@H](C2)NCC3)OC1CCCCC1
[A] 19.7 ×10⁻⁶ cm/s

[Q] Report Papp A→B at 1 h, 100 µM, nothing else, for this compound: CC(C)C(=O)OCOc1ccc2c(c1)[C@]13CCCC[C@@H]1[C@H](C2)NCC3
[A] 21.2 ×10⁻⁶ cm/s

[Q] Provide Papp A→B at 1 h, 100 µM value for the following compound: CCCCC(CC)C(=O)OCOc1ccc2c(c1)[C@]13CCCC[C@@H]1[C@H](C2)NCC3 (stereo partly drawn) [Example 60, TFA]
[A] 20.2 ×10⁻⁶ cm/s

[Q] State its Papp A→B at 1 h, 100 µM: CC(C)(C)C(=O)OCOc1ccc2c(c1)[C@]13CCCC[C@@H]1[C@H](C2)NCC3
[A] 20.3 ×10⁻⁶ cm/s

[Q] Determine from records and report Papp A→B at 1 h, 100 µM for CC(C)COC(=O)OCOc1ccc2c(c1)[C@]13CCCC[C@@H]1[C@H](C2)NCC3 [Example 23, TFA]
[A] 20.3 ×10⁻⁶ cm/s

[Q] Indicate the recorded Papp A→B at 1 h, 100 µM value for this compound: O=C(OCOc1ccc2c(c1)[C@]13CCCC[C@@H]1[C@H](C2)NCC3)OCC1CC1
[A] 15.3 ×10⁻⁶ cm/s

All values here come from patent US8178551B2.
